target-system: benzoylformate decarboxylase (BFDC) (Pseudomonas putida, UniProt P20906)
Sequence (P20906 whole entry): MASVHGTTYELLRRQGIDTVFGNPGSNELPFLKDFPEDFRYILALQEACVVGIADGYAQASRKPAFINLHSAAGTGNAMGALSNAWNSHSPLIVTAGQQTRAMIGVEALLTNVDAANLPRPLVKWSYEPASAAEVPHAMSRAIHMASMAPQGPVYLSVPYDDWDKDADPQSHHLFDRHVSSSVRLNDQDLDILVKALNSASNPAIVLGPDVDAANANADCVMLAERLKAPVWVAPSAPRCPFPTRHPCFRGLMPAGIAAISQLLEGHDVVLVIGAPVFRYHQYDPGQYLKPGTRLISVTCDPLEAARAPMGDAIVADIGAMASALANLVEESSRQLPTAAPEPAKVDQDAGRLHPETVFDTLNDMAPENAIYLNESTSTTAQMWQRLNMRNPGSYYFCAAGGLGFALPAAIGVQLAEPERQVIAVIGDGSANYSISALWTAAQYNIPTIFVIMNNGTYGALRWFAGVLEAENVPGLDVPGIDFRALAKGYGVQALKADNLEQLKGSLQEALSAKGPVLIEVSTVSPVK
assay-protocol: stopped-flow PDA transient kinetics
observable: pKd
By convention, pKd is the negative base-10 log of a molar concentration.

### Prompt // returns reported pKd for input O=C(O)C(=O)/C=C/c1cccnc1
### Response 3.47

###

target-system: benzaldehyde lyase (BAL) (Pseudomonas fluorescens, UniProt P51853)
Sequence (P51853 whole entry): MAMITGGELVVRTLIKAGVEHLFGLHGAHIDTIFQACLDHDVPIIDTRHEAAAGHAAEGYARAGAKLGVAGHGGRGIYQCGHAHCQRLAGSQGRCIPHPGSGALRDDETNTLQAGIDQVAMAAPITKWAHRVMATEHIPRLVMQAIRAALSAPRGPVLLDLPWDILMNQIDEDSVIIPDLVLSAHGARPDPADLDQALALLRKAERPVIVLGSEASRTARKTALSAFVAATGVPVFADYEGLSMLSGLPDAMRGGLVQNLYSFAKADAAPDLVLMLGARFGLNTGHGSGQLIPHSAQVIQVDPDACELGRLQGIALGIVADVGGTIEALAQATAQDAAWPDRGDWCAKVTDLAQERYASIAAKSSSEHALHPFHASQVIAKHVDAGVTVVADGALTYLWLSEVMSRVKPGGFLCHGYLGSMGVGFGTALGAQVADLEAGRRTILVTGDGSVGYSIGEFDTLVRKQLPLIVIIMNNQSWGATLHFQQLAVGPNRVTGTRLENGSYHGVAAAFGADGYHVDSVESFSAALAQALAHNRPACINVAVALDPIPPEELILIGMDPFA
assay-protocol: CD titration of purified BAL
observable: pKd
By convention, pKd is the negative base-10 log of a molar concentration.

### Prompt // returns reported pKd for input O=C/C=C/c1cccnc1 [PAA, (E)-3-(pyridin-3-yl)acrylaldehyde]
### Response 4.67

Origin of values: paper PMC2788921
